molecular target: Acetylcholinesterase (Bos taurus)
Sequence (P23795 whole entry): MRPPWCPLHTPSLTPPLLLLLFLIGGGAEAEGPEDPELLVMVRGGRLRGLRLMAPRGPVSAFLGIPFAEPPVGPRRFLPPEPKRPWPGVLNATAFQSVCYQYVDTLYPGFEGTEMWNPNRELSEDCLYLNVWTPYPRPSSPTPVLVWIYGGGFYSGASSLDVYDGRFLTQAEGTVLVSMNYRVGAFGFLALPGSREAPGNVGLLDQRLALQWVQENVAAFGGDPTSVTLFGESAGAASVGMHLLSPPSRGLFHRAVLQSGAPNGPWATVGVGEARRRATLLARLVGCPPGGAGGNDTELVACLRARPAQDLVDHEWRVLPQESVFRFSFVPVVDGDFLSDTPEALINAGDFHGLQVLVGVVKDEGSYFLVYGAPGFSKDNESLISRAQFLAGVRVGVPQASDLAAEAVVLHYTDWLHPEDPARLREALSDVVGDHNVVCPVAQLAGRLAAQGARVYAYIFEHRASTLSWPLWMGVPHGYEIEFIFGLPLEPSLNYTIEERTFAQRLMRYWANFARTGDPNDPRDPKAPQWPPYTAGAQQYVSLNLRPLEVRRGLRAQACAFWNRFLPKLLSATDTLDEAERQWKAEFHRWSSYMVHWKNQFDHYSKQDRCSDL
QUANTITY: pIC50
Note: pIC50 values are expressed as the negative base-10 logarithm of concentration in M.

Form field - read-out: pIC50; system: Acetylcholinesterase (Bos taurus); submitted item: Cc1nn(-c2ccccc2)c2nc3nc4c(c(N)c3cc12)CCCC4
5.19
